Consider the following binders; for each one, report its β-Arrestin IC50.
# assay.target: T1, Formyl-Peptide Receptor 1 (UniProt P21462 1-350, limits assumed)
# T1 sequence (looked up): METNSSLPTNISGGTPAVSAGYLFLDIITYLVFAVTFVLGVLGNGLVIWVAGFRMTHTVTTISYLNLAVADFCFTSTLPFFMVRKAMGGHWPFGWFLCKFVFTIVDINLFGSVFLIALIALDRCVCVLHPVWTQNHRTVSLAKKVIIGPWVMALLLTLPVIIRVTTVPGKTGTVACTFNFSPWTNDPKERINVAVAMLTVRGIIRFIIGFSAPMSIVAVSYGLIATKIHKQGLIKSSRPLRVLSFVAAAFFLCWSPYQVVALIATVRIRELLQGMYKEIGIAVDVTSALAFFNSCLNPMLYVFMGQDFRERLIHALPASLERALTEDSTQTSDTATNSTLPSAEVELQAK
# protocol.notes: cell-based or functional assay
Bridges are numbered along the chain shown (N, C = ends). [ ]: non-standard residue; d: D form. Phe(4-CF3) = N[C@@H](Cc1ccc(C(F)(F)F)cc1)C(=O)O; Dab = NCC[C@H](N)C(=O)O
Hi! Could you send only the number? It should be in nM, unit omitted.

Indicate the recorded β-Arrestin IC50 value for this binder: cyclo(YHKCHG[dP]WTICYEK[dK]E) (disulfide 4-11; SMILES CC[C@H](C)[C@@H]1NC(=O)[C@H]([C@@H](C)O)NC(=O)[C@H](Cc2c[nH]c3ccccc23)NC(=O)[C@H]2CCCN2C(=O)CNC(=O)[C@H](Cc2c[nH]cn2)NC(=O)[C@@H]2CSSC[C@H](NC1=O)C(=O)N[C@@H](Cc1ccc(O)cc1)C(=O)N[C@@H](CCC(=O)O)C(=O)N[C@@H](CCCCN)C(=O)N[C@H](CCCCN)C(=O)N[C@@H](CCC(=O)O)C(=O)N[C@@H](Cc1ccc(O)cc1)C(=O)N[C@@H](Cc1c[nH]cn1)C(=O)N[C@@H](CCCCN)C(=O)N2) [cyclo(-Tyr-His-Lys-Cys-His-Gly-^DPro-Trp-Thr-Ile-Cys-Tyr-Glu-Lys-^DLys-Glu-)] 124

Indicate its recorded β-Arrestin IC50; the binder in question is cyclo(EHACWG[dP]WTICYQK[dP]P) (disulfide 4-11; SMILES CC[C@H](C)[C@@H]1NC(=O)[C@H]([C@@H](C)O)NC(=O)[C@H](Cc2c[nH]c3ccccc23)NC(=O)[C@H]2CCCN2C(=O)CNC(=O)[C@H](Cc2c[nH]c3ccccc23)NC(=O)[C@@H]2CSSC[C@H](NC1=O)C(=O)N[C@@H](Cc1ccc(O)cc1)C(=O)N[C@@H](CCC(N)=O)C(=O)N[C@@H](CCCCN)C(=O)N1CCC[C@@H]1C(=O)N1CCC[C@H]1C(=O)N[C@@H](CCC(=O)O)C(=O)N[C@@H](Cc1c[nH]cn1)C(=O)N[C@@H](C)C(=O)N2) [cyclo(-Glu-His-Ala-Cys-Trp-Gly-^DPro-Trp-Thr-Ile-Cys-Tyr-Gln-Lys-^DPro-Pro-)] 131

Give β-Arrestin IC50 for cyclo(YHKCWG[dP]WTICYE[Dab][dP]P) (disulfide 4-11) [cyclo(-Tyr-His-Lys-Cys-Trp-Gly-^DPro-Trp-Thr-Ile-Cys-Tyr-Glu-Dab-^DPro-Pro-)] 53

Give the reported value of β-Arrestin IC50 for this record: cyclo(YHKCHG[dP][Phe(4-CF3)]TICYEK[dP]P) (disulfide 4-11; SMILES CC[C@H](C)[C@@H]1NC(=O)[C@H]([C@@H](C)O)NC(=O)[C@H](Cc2ccc(C(F)(F)F)cc2)NC(=O)[C@H]2CCCN2C(=O)CNC(=O)[C@H](Cc2c[nH]cn2)NC(=O)[C@@H]2CSSC[C@H](NC1=O)C(=O)N[C@@H](Cc1ccc(O)cc1)C(=O)N[C@@H](CCC(=O)O)C(=O)N[C@@H](CCCCN)C(=O)N1CCC[C@@H]1C(=O)N1CCC[C@H]1C(=O)N[C@@H](Cc1ccc(O)cc1)C(=O)N[C@@H](Cc1c[nH]cn1)C(=O)N[C@@H](CCCCN)C(=O)N2) [cyclo(-Tyr-His-Lys-Cys-His-Gly-^DPro-Phe(4CF3)-Thr-Ile-Cys-Tyr-Glu-Lys-^DPro-Pro-)] 114
